B1: FAM46C (parent)
chain: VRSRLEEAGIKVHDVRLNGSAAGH

Variants of: B1
Assay: protein stability index of a GFP-peptide fusion (GPS, HEK-293T) (PSI 1-6); higher = more stable;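 note: lentivirally expressed fusions sorted by FACS into six bins by GFP to DsRed ratio, PSI derived from sequencing read proportions per bin multiplied by bin number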
Conditions: c terminus: a fixed tail appended
measured.quantity: protein stability index

> print(dat)
    var        measured.quantity  value.reported
1  G19S  protein stability index            2.09
2   G9T  protein stability index            2.97
3  G23K  protein stability index            2.25
4   R4H  protein stability index            3.26
5  H13N  protein stability index            2.74
6  H13Q  protein stability index            2.42
7   S3W  protein stability index            2.05
8  G19Q  protein stability index            2.74
9   S3K  protein stability index            1.37
